Hello, the source for this data is PubChem BioAssay (NCI), in case you need it.

# procedure summary: NCI Yeast Anticancer Drug Screen. Data for the CLN2oe strain (AID 163);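 also: 0% = growth of vehicle-only control cultures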
# test parameters: S. cerevisiae CLN2oe strain, at 1.2 µM, active compounds read high
The panel holds about 79,000 compounds, 15% with a hit somewhere; the sample as a whole holds those more often.
# maps each entry to its growth inhibition

molecule: CCCCOC(=O)CSSCC(=O)OCCCC
growth inhibition (%): 8
//
molecule: Nc1nc(N)c2c(n1)CCC(S(=O)(=O)c1ccc3ccccc3c1)C2 (stereo unspecified)
growth inhibition (%): -3
//
molecule: c1ccc(N2N=C3N(c4ccccc4)C2N3c2ccccc2)cc1
growth inhibition (%): -12
//
molecule: O=S(=O)(N/N=C/c1cccc(Cl)c1)c1ccccc1
growth inhibition (%): -10
//
molecule: CCc1[nH]nc(C(N)=O)c1N=NN(C)C
growth inhibition (%): -2
//
molecule: NC(=O)N1c2ccccc2C=Cc2ccccc21
growth inhibition (%): 5

###

# growth inhibition annotations
# procedure summary: NCI Yeast Anticancer Drug Screen. Data for the rad14 strain (AID 159);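 also: 0% = growth of vehicle-treated control cultures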
# test parameters: S. cerevisiae rad14 strain growth inhibition; at 1.2 µM; active compounds read high
# Experimental: Growth inhibition of yeast strains with defined genetic alterations is measured as a screen for potential anti-cancer activity. Selected strains with alterations in DNA damage repair or cell cycle control were exposed to compounds and growth inhibition was measured relative to vehicle treated controls. The strain used in this assay is rad14
The panel holds about 79,000 compounds, 15% with a hit somewhere; the sample as a whole holds those more often.

compound: CCOC(=O)C(NC(=O)CC)(N1CCN(c2cc3c(cc2F)c(=O)c(C(=O)O)cn3C2CC2)CC1)C(F)(F)F (stereo unspecified)
units label: %
growth inhibition: 0
//
compound: CCCCOC(=O)CSSCC(=O)OCCCC
units label: %
growth inhibition: -11
//
compound: O=C(O)c1[nH]c(=O)c2ccccc2c1Nc1ccccc1
units label: %
growth inhibition: -3
//
compound: CN(C)CCN1C(=O)c2cccc3cc([N+](=O)[O-])cc(c23)C1=O
units label: %
growth inhibition: 2
//
compound: COc1cc(NCc2ccc3nc(N)nc(N)c3c2C)cc(OC)c1OC
units label: %
growth inhibition: -2
//
compound: O=C(CNS(=O)(=O)Cc1ccccc1)NNc1ccccc1
units label: %
growth inhibition: 0

###

# procedure summary: NCI Yeast Anticancer Drug Screen. Data for the mec2-1 strain (AID 157)
# test parameters: S. cerevisiae mec2-1 strain, at 5.0 µM (retest, dose inferred, filed as 0.5), active compounds read high
This is part of a sample that, as a whole, favours compounds with a hit. Of some 79,000 tested, about 15% had one in any assay.

compound: COC(=O)c1cccc(C)c1C(=O)c1c(C)cc(C)cc1C
units label: %
growth inhibition: 3

compound: COc1ccc(/C=C2\SC(=S)N(C=C3C(=O)NC(=S)NC3=O)C2=O)cc1OC
units label: %
growth inhibition: -16

compound: CC(=O)C1=C(O)C2(C)c3c(O)c(C)c(O)c(C(C)=O)c3OC2(Sc2ccccc2)CC1=O (stereo unspecified)
units label: %
growth inhibition: 22

compound: N#C/C(=C/N1C(=O)/C(=C/c2ccc([N+](=O)[O-])cc2)SC1=S)c1nc2ccccc2s1
units label: %
growth inhibition: -1

compound: CCC(=O)N(c1ccccc1)C(C)CN1CCC(O)(c2cccc(C(F)(F)F)c2)CC1 (stereo unspecified)
units label: %
growth inhibition: -2

compound: CC1CCC2(C(=O)O)CCC3(C)C(=CCC4C5(C)CC(O)C(O)C(C)(CO)C5C(O)CC43C)C2C1C (stereo unspecified)
units label: %
growth inhibition: -1

compound: O=C1C=CC(=O)N1c1ccc(N2C(=O)C=CC2=O)cc1
units label: %
growth inhibition: 39

compound: CNc1ccc(Cc2c[nH]c3ccccc23)cc1
units label: %
growth inhibition: 56

compound: O=[N+]([O-])/C(C(Cl)=C(Cl)Cl)=C1/OCCS1
units label: %
growth inhibition: 11

compound: Oc1ccc(Br)cc1C=NC1CCCCC1
units label: %
growth inhibition: 47

compound: COc1ccc(N2CN(C)CSC2=S)cc1
units label: %
growth inhibition: 73

compound: Cc1ccc(CNc2ccc(Br)cc2)cc1
units label: %
growth inhibition: 63

compound: O=C(/C=C\c1ccc([N+](=O)[O-])o1)Nc1ccc(Cl)cc1
units label: %
growth inhibition: 23

compound: O=Cc1coc2ccccc2c1=O
units label: %
growth inhibition: -15

compound: Oc1ccc(C=Nc2ccccc2O)cc1
units label: %
growth inhibition: 26

compound: CC(=O)N1C(=O)/C(=C\C(=O)c2ccc(Cl)cc2)c2ccccc21
units label: %
growth inhibition: 45

compound: N#CC(=C1C=CC(=NO)C=C1)c1ccccc1
units label: %
growth inhibition: 19

compound: ClCCn1c(CCl)nc2ccc(Cl)cc21
units label: %
growth inhibition: 18

compound: CCCCCCSc1nc(COC(=O)NC)c(COC(=O)NC)n1C
units label: %
growth inhibition: 0

compound: Nc1ccc2c(=S)c3ccccc3[nH]c2c1
units label: %
growth inhibition: 14

compound: Clc1cc(-c2ccccc2)nc2ccccc12
units label: %
growth inhibition: 77

###

# procedure summary: NCI Yeast Anticancer Drug Screen. Data for the rad50EPP+ strain (AID 151);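 also: 0% = growth of vehicle-treated control cultures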
# test parameters: S. cerevisiae rad50 mutant strain, at 100.0 µM, active compounds read high
Compounds without any hit were thinned out: in the full panel of roughly 79,000, 15% have a hit.

compound: Cc1ccc2c(ccc(/C=C/c3ccc(O)c4ncccc34)[n+]2C)c1
growth inhibition / %: 79
--
compound: CCn1ncc(N=O)c1N
growth inhibition / %: 71
--
compound: CN(C)CCNc1cccc2sc3ccc(O)cc3c(=O)c12
growth inhibition / %: 33
--
compound: COc1cc(/C=C/c2sc3ccccc3[n+]2C)ccc1N(C)C
growth inhibition / %: 87
--
compound: Nc1ccc2c(=S)c3ccccc3[nH]c2c1
growth inhibition / %: 74
--
compound: C(=N/NC1=NCCN1)/c1c2ccccc2c(/C=N\NC2=NCCN2)c2ccccc12
growth inhibition / %: 94
--
compound: O=Nn1c2ccccc2c2cc([N+](=O)[O-])ccc21
growth inhibition / %: 85
--
compound: COc1ccc(N2C(=O)CC(Cl)C2=O)cc1 (centres undefined)
growth inhibition / %: 99
--
compound: COC(=O)c1oc([N+](=O)[O-])c(Cl)c1Cl
growth inhibition / %: 98

###

# procedure summary: NCI Yeast Anticancer Drug Screen. Data for the wt2 strain (AID 169);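 also: 0% = growth of vehicle-treated yeast cultures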
# test parameters: S. cerevisiae wt2 strain growth inhibition; at 11.0 µM; active compounds read high
Compounds without any hit were thinned out: in the full panel of roughly 79,000, 15% have a hit. Activity calls are given as the source filed them. Rule as the data show it: active = growth inhibition above about 70%; inactive = the rest.
In this section we review reported growth inhibition values for a set of compounds.
readout kind: growth inhibition

compound: CN=C(N)N/N=C(\C)c1ccc2oc3ccc(/C(C)=N/NC(N)=NC)cc3c2c1
observed result: 95% (active)
--
compound: NC(N)=NCCCS(=O)(=O)Nc1ccc(Nc2c3ccccc3nc3cc([N+](=O)[O-])ccc23)cc1
observed result: -77% (inactive)
--
compound: CCN1/C(=C/c2ccc3ccccc3[n+]2CC)C=Cc2ccccc21
observed result: 57% (inactive)
--
compound: Cc1c(-c2ccccc2)[nH]c2ccccc12
observed result: 6% (inactive)
--
compound: CC(=O)[C@]1(O)Cc2c(O)c3c(c(O)c2[C@@H](OC2CC(N)C(O)C(C)O2)C1)C(=O)c1c(OCc2ccccc2)cccc1C3=O (some centres not stated)
observed result: -53% (inactive)
--
compound: Cc1ccc(S(=O)(=O)Nc2ccc3c(c2)C(O)c2ccccc2-3)cc1 (configuration not stated)
observed result: -2% (inactive)
--
compound: Cc1ccc(CNc2ccc(Br)cc2)cc1
observed result: -13% (inactive)
--
compound: CC(=O)Oc1ccc(C(=O)c2ccccc2)c(O)c1
observed result: 7% (inactive)
--
compound: Cc1ccccc1NC(=O)Cc1csc(N/N=C2\NC(=O)/C(=C/c3cccc([N+](=O)[O-])c3)S2)n1
observed result: 5% (inactive)
--
compound: CNc1ccc(Cc2c[nH]c3ccccc23)cc1
observed result: -29% (inactive)
--
compound: Clc1c(Cl)c(Cl)c2c(nnn2C2CCCO2)c1Cl (configuration not stated)
observed result: 6% (inactive)
--
compound: CN[C@@H]1C[C@H]2O[C@@](C)([C@@H]1OC)n1c3ccccc3c3c4c(c5c6ccccc6n2c5c31)C(=O)N[C@@H]4O
observed result: 15% (inactive)

###

# procedure summary: NCI Yeast Anticancer Drug Screen. Data for the wt2 strain (AID 169);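 also: 0% = growth of vehicle-treated yeast cultures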
# test parameters: S. cerevisiae wt2 strain growth inhibition; at 3.7 µM; active compounds read high
# Method: Growth inhibition of yeast strains with defined genetic alterations is measured as a screen for potential anti-cancer activity. Selected strains with alterations in DNA damage repair or cell cycle control were exposed to compounds and growth inhibition was measured relative to vehicle treated controls. The strain used in this assay is wt2
This is part of a sample that, as a whole, favours compounds with a hit. Of some 79,000 tested, about 15% had one in any assay.
Below is a list of entries, each paired with its recorded growth inhibition value.
readout kind: growth inhibition (%)

compound: S=C(S)NCC1CCC(CNC(=S)S)CC1 (stereo not given)
observed result: -20
//
compound: CN[C@@H]1C[C@H]2O[C@@](C)([C@@H]1OC)n1c3ccccc3c3c4c(c5c6ccccc6n2c5c31)C(=O)N[C@@H]4O
observed result: -16
//
compound: [Pt].c1ccc(P(CCP(c2ccccc2)c2ccccc2)CCP(c2ccccc2)c2ccccc2)cc1
observed result: -4
//
compound: COCCCN(Cc1cc(OC)c(OC)c(OC)c1)C(=S)Nc1cccc(Cl)c1
observed result: -3
//
compound: Cc1ccc(I)cc1N=C=S
observed result: -12
//
compound: O=C1c2ccccc2CCC1(Br)Br
observed result: 13
//
compound: S=c1nc(Cl)cc2[nH]c(Cl)cn12
observed result: 3
//
compound: O=C(/C=C/c1cccc2ccccc12)c1ccc(Cl)cc1
observed result: -19
//
compound: O=C1OC2C(O)COC2(OCc2c[nH]c3ccccc23)C1O (stereo not given) (tested in a mixture with another compound)
observed result: 7
//
compound: Nc1nc(N)c2cc(Sc3ccc4ccccc4c3)ccc2n1
observed result: 25
//
compound: Clc1cc(Cc2ccc(N=C/C=C/c3ccccc3)c(Cl)c2)ccc1N=C/C=C\c1ccccc1
observed result: -17
//
compound: CN(NC(=O)/C(=C/c1ccc(O)cc1)NC(=O)c1ccccc1)c1ccnc2cc(Cl)ccc12
observed result: -1
//
compound: C=C(C)[C@@H]1CCc2c(O)c(O)c(=O)cc(C)c2C1
observed result: -31
//
compound: O=C(O)c1[nH]c(=O)c2ccccc2c1Nc1ccccc1
observed result: -3
//
compound: COc1ccc2oc(-c3ccc(Cl)cc3)c(N3CCN(C)CC3)c2c1
observed result: -3
